Molecular target: Histone acetyltransferase RTT109 (Saccharomyces cerevisiae (strain ATCC 204508 / S288c) (Baker's yeast))
Assay: Inhibition of Vps75-stimulated recombinant Saccharomyces cerevisiae histone acetyltransferase Rtt109 assessed as H3K27 acetylated product at […] after 45 mins by Slot bolt inhibiton assay
The source made the active and inactive calls. No rule for the calls is given here.
Respond with a class label; see active, inactive

O=S(=O)(Nc1ccc(O)c(Br)c1)c1ccc(Cl)cc1 :: inactive
COc1ccc(Cc2nnc(SC3=CS(=O)(=O)c4ccccc43)o2)cc1 :: active

INPUT: Please indicate how the test categorized `COc1cc(-c2nnc(SC3=CS(=O)(=O)c4ccccc43)o2)cc(OC)c1OC` .
OUTPUT: active
